# MEASURED ON: recombinant GST-tagged human protein kinase D1 (PKD1) (Homo sapiens, UniProt Q15139)
# Construct: purchased Enzo Life sciences (Farmingdale, NY)
# Sequence (Q15139 1-912): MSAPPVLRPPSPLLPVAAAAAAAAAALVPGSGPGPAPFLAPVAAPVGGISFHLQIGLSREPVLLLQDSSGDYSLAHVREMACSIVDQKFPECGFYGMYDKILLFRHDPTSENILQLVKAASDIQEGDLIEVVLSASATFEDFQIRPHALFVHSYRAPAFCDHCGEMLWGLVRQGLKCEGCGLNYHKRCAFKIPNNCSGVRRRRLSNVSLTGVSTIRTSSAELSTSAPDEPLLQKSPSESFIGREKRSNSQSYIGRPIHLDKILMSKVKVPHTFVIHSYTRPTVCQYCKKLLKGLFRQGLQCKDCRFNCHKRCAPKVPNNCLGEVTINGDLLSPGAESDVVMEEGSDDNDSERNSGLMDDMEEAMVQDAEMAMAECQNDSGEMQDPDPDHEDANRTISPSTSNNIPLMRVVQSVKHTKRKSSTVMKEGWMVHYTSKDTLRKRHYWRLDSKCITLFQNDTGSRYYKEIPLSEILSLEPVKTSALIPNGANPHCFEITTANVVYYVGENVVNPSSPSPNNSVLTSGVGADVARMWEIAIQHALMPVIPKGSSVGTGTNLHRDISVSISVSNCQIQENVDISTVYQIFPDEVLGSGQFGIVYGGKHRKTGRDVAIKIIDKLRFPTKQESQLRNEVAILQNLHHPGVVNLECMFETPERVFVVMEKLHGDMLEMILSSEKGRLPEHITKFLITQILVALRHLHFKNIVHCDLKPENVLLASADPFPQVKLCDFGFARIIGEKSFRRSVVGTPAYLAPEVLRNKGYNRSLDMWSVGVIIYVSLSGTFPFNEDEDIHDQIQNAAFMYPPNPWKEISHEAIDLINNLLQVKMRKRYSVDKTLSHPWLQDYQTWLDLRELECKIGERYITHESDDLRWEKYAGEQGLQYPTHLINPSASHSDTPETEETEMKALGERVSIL
# EXPERIMENT DESCRIPTION: In vitro radiometric PKD1 kinase assay
# Format: biochemical
# CONDITION LABEL: read-out: Inhibition of PKD1

| COMPOUND | inhibition at 1 µM, % |
| --- | --- |
| COc1cccc(C(=O)c2sc(Nc3ccc(N4CCN(C(C)C)CC4)cc3)nc2N)c1 | 65 |
| COc1ccc(O)c(C(=O)c2ccc(C(=O)N[C@@H]3CCCNC[C@H]3NC(=O)c3ccncc3)cc2)c1F | 78 |
| CNCC#Cc1c(F)ccc2c1/C(=C/c1[nH]ccc1OC)C(=O)N2 | 94 |
| COc1ccc(O)c(C(=O)c2ccc(C(=O)O[C@@H]3CCCNC[C@H]3NC(=O)c3ccncc3)cc2)c1F | 77 |
| CC(CO)Nc1cc(-c2[nH]c3cccnc3c2-c2ccc(F)cc2)ccn1 (stereo not drawn) | 94 |
| O=C1Nc2ccc(F)c3c(OCCO)cc(-c4ccc[nH]4)c1c23 | 86 |
| Cn1c(-c2ccncc2)c(-c2ccc(F)cc2)c2ncccc21 | 55 |
| Fc1ccc(-c2c(-c3ccncc3)[nH]c3cccnc23)cc1 | 86 |
| CC(O)CNc1cc(-c2[nH]c3cccnc3c2-c2ccc(F)cc2)ccn1 (stereo not drawn) | 80 |

---

# MEASURED ON: endogenous PKD1 in LNCaP prostate cancer cells (Homo sapiens, UniProt Q15139)
# Construct: endogenous in cells
# EXPERIMENT DESCRIPTION: PMA-induced activation of PKD1 in LNCaP cells (immunoblot pS916 / pS744/748)
# CONDITION LABEL: PMA 10 nM, densitometry of pS916-PKD1 levels, read-out: cellular IC50 for inhibition of PKD1

| COMPOUND | IC50 |
| --- | --- |
| CNC1=NC(=O)/C(=C/c2ccc3ncccc3c2)S1 | 18.2 µM |
| CC(CO)Nc1cc(-c2[nH]c3cccnc3c2-c2ccc(F)cc2)ccn1 (centres unmarked) | 1.5 µM |

---

# MEASURED ON: recombinant GST-tagged human protein kinase D1 (PKD1) (Homo sapiens, UniProt Q15139)
# Sequence (Q15139 1-912): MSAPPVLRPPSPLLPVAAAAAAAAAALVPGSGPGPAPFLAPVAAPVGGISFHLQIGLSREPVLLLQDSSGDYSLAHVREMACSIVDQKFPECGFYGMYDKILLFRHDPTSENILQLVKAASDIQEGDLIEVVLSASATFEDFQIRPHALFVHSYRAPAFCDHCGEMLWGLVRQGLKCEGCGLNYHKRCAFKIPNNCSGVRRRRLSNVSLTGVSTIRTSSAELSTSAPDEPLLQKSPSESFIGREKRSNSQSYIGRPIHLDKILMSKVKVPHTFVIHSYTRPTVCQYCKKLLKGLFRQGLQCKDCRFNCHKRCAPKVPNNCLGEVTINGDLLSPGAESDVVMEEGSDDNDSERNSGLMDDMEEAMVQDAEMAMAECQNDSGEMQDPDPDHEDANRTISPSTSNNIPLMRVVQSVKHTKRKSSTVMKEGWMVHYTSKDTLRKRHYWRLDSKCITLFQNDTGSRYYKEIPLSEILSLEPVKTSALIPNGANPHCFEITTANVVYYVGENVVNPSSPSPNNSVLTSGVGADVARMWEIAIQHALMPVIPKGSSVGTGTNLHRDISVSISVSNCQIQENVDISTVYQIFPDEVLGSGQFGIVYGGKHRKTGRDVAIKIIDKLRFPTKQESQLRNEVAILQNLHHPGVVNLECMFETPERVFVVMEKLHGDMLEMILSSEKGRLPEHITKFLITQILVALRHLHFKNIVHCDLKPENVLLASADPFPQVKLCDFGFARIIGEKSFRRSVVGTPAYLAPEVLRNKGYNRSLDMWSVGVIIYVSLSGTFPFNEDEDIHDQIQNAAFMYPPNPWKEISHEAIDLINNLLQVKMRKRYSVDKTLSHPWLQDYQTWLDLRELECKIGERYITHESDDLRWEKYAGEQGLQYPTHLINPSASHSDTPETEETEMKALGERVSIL
# EXPERIMENT DESCRIPTION: In vitro radiometric PKD1 kinase assay
# CONDITION LABEL: dose-response, mean ± SEM of 3 independent experiments
QUANTITY KIND: IC50

| COMPOUND | QUANTITY KIND | MEASURED RESULT |
| --- | --- | --- |
| CNC1=NC(=O)/C(=C/c2ccc3ncccc3c2)S1 | IC50 | 562 nM |
| CC(CO)Nc1cc(-c2[nH]c3cccnc3c2-c2ccc(F)cc2)ccn1 (centres unmarked) | IC50 | 16.8 nM |

---

# MEASURED ON: recombinant GST-tagged human protein kinase D1 (PKD1) (Homo sapiens)
# Construct: purchased Enzo Life sciences (Farmingdale, NY)
# Sequence (Q15139 1-912): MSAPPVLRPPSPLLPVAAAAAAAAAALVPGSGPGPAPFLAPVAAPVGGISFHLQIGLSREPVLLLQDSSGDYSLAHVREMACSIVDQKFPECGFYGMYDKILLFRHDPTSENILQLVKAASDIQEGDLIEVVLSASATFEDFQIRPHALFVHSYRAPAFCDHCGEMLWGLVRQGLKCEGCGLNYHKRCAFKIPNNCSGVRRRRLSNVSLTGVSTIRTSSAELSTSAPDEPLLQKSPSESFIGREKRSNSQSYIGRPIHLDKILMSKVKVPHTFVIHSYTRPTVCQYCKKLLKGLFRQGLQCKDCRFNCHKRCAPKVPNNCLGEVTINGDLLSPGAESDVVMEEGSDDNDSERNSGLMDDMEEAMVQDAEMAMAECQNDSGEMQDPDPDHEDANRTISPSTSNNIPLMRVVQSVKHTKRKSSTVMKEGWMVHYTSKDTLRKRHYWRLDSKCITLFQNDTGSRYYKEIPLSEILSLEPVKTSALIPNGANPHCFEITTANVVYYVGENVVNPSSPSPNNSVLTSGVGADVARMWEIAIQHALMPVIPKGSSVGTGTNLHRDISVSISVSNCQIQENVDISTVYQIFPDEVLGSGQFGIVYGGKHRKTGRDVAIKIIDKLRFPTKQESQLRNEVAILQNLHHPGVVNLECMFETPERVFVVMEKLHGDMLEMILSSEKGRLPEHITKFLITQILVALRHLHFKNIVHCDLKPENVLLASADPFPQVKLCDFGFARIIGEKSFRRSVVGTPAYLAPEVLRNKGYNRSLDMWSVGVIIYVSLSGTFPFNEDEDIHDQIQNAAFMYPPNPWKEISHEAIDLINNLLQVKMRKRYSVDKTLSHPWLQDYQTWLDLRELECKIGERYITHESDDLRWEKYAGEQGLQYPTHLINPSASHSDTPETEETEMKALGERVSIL
# EXPERIMENT DESCRIPTION: In vitro radiometric PKD1 kinase assay
# Format: biochemical
# CONDITION LABEL: 1 µM, triplicate determinations; read-out: Inhibition of PKD1
QUANTITY KIND: inhibition at 1 µM (%)

| MOLECULE | MEASURED ON | MEASURED RESULT |
| --- | --- | --- |
| O=C1Nc2ccc(F)cc2/C1=C/c1ccc[nH]1 [Compound 4] | recombinant GST-tagged human protein kinase D1 (PKD1) (Homo sapiens) | 57 |
| Cc1cc(C)c2c(n1)sc1c(N)ncnc12 [Compound 172] | recombinant GST-tagged human protein kinase D1 (PKD1) (Homo sapiens) | 62 |
| Fc1ccc(-c2c(-c3ccncc3)[nH]c3nccnc23)cc1 [Compound 122] | recombinant GST-tagged human protein kinase D1 (PKD1) (Homo sapiens) | 62 |
| COc1cc[nH]c1/C=C1\C(=O)Nc2ccc([N+](=O)[O-])c(N3CC[C@@H](O)C3)c21 [Compound 102] | recombinant GST-tagged human protein kinase D1 (PKD1) (Homo sapiens) | 93 |
| CNC1=NC(=O)/C(=C/c2ccc3ncccc3c2)S1 [Compound 209] | recombinant GST-tagged human protein kinase D1 (PKD1) (Homo sapiens) | 64 |
| COc1cc[nH]c1C=C1C(=O)Nc2ccc(F)c(C#CC(O)C(N)C(C)O)c21 (stereo not shown) [Compound 17] | recombinant GST-tagged human protein kinase D1 (PKD1) (Homo sapiens) | 97 |
| O=C1N=C(N[C@H](CO)Cc2ccccc2)S/C1=C\c1ccc2ncccc2c1 [Compound 190] | recombinant GST-tagged human protein kinase D1 (PKD1) (Homo sapiens) | 49 |
| COc1cc[nH]c1/C=C1\C(=O)Nc2ccc(F)c(C#CC3(O)CCNCC3)c21 [Compound 15] | recombinant GST-tagged human protein kinase D1 (PKD1) (Homo sapiens) | 97 |
| CSc1c(C2=C(c3cn(C)c4ccccc34)C(=O)NC2=O)c2ccccc2n1C [Compound 30] | recombinant GST-tagged human protein kinase D1 (PKD1) (Homo sapiens) | 65 |
| OCCn1c(-c2ccncc2)c(-c2ccc(F)cc2)c2ncccc21 [Compound 123] | recombinant GST-tagged human protein kinase D1 (PKD1) (Homo sapiens) | 58 |
| COc1cc[nH]c1/C=C1\C(=O)Nc2ccc(F)c(C#CC3(O)CCOCC3)c21 [Compound 13] | recombinant GST-tagged human protein kinase D1 (PKD1) (Homo sapiens) | 80 |
| Cn1cc(C2=C(c3cn(CCCO)c4ccccc34)C(=O)NC2=O)c2ccccc21 [Compound 34] | recombinant GST-tagged human protein kinase D1 (PKD1) (Homo sapiens) | 65 |
| CN[C@H](C#Cc1c(F)ccc2c1/C(=C/c1[nH]ccc1OC)C(=O)N2)CO [Compound 16] | recombinant GST-tagged human protein kinase D1 (PKD1) (Homo sapiens) | 95 |
| COc1cc[nH]c1/C=C1\C(=O)Nc2ccccc21 [Compound 5] | recombinant GST-tagged human protein kinase D1 (PKD1) (Homo sapiens) | 55 |
| Cn1cc(C2=C(c3cccc4ccccc34)C(=O)NC2=O)c2ccccc21 [Compound 25] | recombinant GST-tagged human protein kinase D1 (PKD1) (Homo sapiens) | 54 |
| O=C1N=C(N[C@H](CO)c2ccccc2)S/C1=C\c1ccc2ncccc2c1 [Compound 203] | recombinant GST-tagged human protein kinase D1 (PKD1) (Homo sapiens) | 85 |
| NC1=NC(=O)/C(=C/c2ccc3ncccc3c2)S1 [Compound 205] | recombinant GST-tagged human protein kinase D1 (PKD1) (Homo sapiens) | 82 |
| O=C1N=C(NCc2ccccc2)S/C1=C\c1ccc2ncccc2c1 [Compound 178] | recombinant GST-tagged human protein kinase D1 (PKD1) (Homo sapiens) | 55 |
| O=C1N=C(N[C@@H](CO)Cc2ccccc2)S/C1=C\c1ccc2ncccc2c1 [Compound 198] | recombinant GST-tagged human protein kinase D1 (PKD1) (Homo sapiens) | 62 |
